Test system: Candida parapsilosis
Protocol text: Antifungal activity against Candida parapsilosis ATCC 22019 after 24 hr by broth microdilution method
Format: functional
Test context: Lodderomyces parapsilosis, ATCC 22019, 24 h
Threshold check on MIC: strictly below 8 µg/mL is 1.0; on or above 8 µg/mL is 0.0.

Please review the entries below; each comes with its answer.
C[C@@H]1[C@H](O)[C@@H](C)/C=C/C=C/C=C/C=C/C=C/C=C/C=C/[C@H](O[C@@H]2O[C@H](C)[C@@H](O)[C@H](N)[C@@H]2O)C[C@@H]2O[C@](O)(C[C@@H](O)C[C@@H](O)[C@H](O)CC[C@@H](O)C[C@@H](O)CC(=O)O[C@H]1C)C[C@H](O)[C@H]2C(=O)O ... 1.0
CC(C)CCCC(C)CCNCCNC12CC3CC(CC(C3)C1)C2.Cl (configuration not stated) ... 0.0

Exercise: Quick check: does `CC(C)=CCC/C(C)=C/CNCCNC12CC3CC(CC(C3)C1)C2.Cl` have MIC under 8 µg/mL?
Key: 0.0

Exercise: Quick check: does CC(C)=CCC/C(C)=C/CNCCNC1C2CC3CC(C2)CC1C3.Cl (configuration not stated) have MIC under 8 µg/mL?
Key: 0.0

Exercise: Quick check: does CC(C)CCCC(C)CCCC(C)CCNCCNC1C2CC3CC(C2)CC1C3.Cl (configuration not stated) have MIC under 8 µg/mL?
Key: 1.0

====

Test system: Candida parapsilosis
Protocol text: Antifungal activity against fluconazole-resistant Candida parapsilosis after 24 hr by broth microdilution method
Type: functional
Test context: Lodderomyces parapsilosis
Recorded metric: MIC (µg/mL)
Please reply with the bare figure in µg/mL and do not write the unit itself.

CC(C)CCCC(C)CCNCCNC1C2CC3CC(C2)CC1C3.Cl (configuration not stated) ... 7.8

Form field MIC, entry CC(C)=CCC/C(C)=C/CNCCNC1C2CC3CC(C2)CC1C3.Cl (configuration not stated) : 250

Form field MIC, entry `CC(C)=CCC/C(C)=C/CNCCNC12CC3CC(CC(C3)C1)C2.Cl` : 125

Form field MIC, entry CC(C)=CCC/C(C)=C/CC/C(C)=C/CNCCNC1C2CC3CC(C2)CC1C3.Cl (configuration not stated) : 3.9

Form field MIC, entry CC(C)CCCC(C)CCNCCNC12CC3CC(CC(C3)C1)C2.Cl (configuration not stated) : 7.8

Form field MIC, entry CC(C)CCCC(C)CCCC(C)CCNCCNC1C2CC3CC(C2)CC1C3.Cl (configuration not stated) : 6.25

Form field MIC, entry `C[C@@H]1[C@H](O)[C@@H](C)/C=C/C=C/C=C/C=C/C=C/C=C/C=C/[C@H](O[C@@H]2O[C@H](C)[C@@H](O)[C@H](N)[C@@H]2O)C[C@@H]2O[C@](O)(C[C@@H](O)C[C@@H](O)[C@H](O)CC[C@@H](O)C[C@@H](O)CC(=O)O[C@H]1C)C[C@H](O)[C@H]2C(=O)O` : 0.02

====

Test system: Rhizomucor
Protocol text: Antifungal activity against Rhizomucor spp. after 24 hr by broth microdilution method
Assay type: functional
Reported MIC by item:
Please reply with the bare figure in µg/mL and do not write the unit itself.

CC(C)CCCC(C)CCCC(C)CCNCCNC1C2CC3CC(C2)CC1C3.Cl (configuration not stated) ... 12.5
CC(C)CCCC(C)CCNCCNC1C2CC3CC(C2)CC1C3.Cl (configuration not stated) ... 7.8
CC(C)=CCC/C(C)=C/CC/C(C)=C/CNCCNC1C2CC3CC(C2)CC1C3.Cl (configuration not stated) ... 7.8
CC(C)=CCC/C(C)=C/CNCCNC1C2CC3CC(C2)CC1C3.Cl (configuration not stated) ... 125
CC(C)=CCC/C(C)=C/CNCCNC12CC3CC(CC(C3)C1)C2.Cl ... 125
C[C@@H]1[C@H](O)[C@@H](C)/C=C/C=C/C=C/C=C/C=C/C=C/C=C/[C@H](O[C@@H]2O[C@H](C)[C@@H](O)[C@H](N)[C@@H]2O)C[C@@H]2O[C@](O)(C[C@@H](O)C[C@@H](O)[C@H](O)CC[C@@H](O)C[C@@H](O)CC(=O)O[C@H]1C)C[C@H](O)[C@H]2C(=O)O ... 0.31

Form field MIC, entry CC(C)CCCC(C)CCNCCNC12CC3CC(CC(C3)C1)C2.Cl (configuration not stated) : 7.8

====

Reported MIC by item:
System: Prescottella equi
Protocol text: Antibacterial activity against Rhodococcus equi ATCC 6939 after 16 to 18 hr by broth microdilution method
Type: functional
Test context: Rhodococcus (subgen. Prescottella) equi
Please reply with the bare figure in µg/mL and do not write the unit itself.

As a guide, the following entries are already answered.
CC(C)CCCC(C)CCNCCNC1C2CC3CC(C2)CC1C3.Cl (configuration not stated) ... 7.8
CC(C)=CCC/C(C)=C/CNCCNC1C2CC3CC(C2)CC1C3.Cl (configuration not stated) ... 125
CC(C)CCCC(C)CCNCCNC12CC3CC(CC(C3)C1)C2.Cl (configuration not stated) ... 15.6
CC(C)=CCC/C(C)=C/CC/C(C)=C/CNCCNC1C2CC3CC(C2)CC1C3.Cl (configuration not stated) ... 7.8
CC(C)=CCC/C(C)=C/CNCCNC12CC3CC(CC(C3)C1)C2.Cl ... 125
NC[C@@H]1O[C@H](O[C@H]2[C@@H](O)[C@H](O[C@@H]3[C@@H](O)[C@H](N)C[C@H](N)[C@H]3O[C@H]3O[C@H](CN)[C@@H](O)[C@H](O)[C@H]3N)O[C@@H]2CO)[C@H](N)[C@@H](O)[C@@H]1O ... 1.56

Form field MIC, entry CC(C)CCCC(C)CCCC(C)CCNCCNC1C2CC3CC(C2)CC1C3.Cl (configuration not stated) : 3.9

====

Test system: Penicillium sp.
Protocol text: Antifungal activity against Penicillium sp. after 24 hr by broth microdilution method
Assay type: functional
Recorded metric: log10(MIC) (log10 of the value in mg/L)
Kindly note that the scale is log10 and the underlying MIC is in mg/L.

Form field log10(MIC), entry CC(C)=CCC/C(C)=C/CC/C(C)=C/CNCCNC1C2CC3CC(C2)CC1C3.Cl (stereo unspecified) : 0.59

Form field log10(MIC), entry CC(C)CCCC(C)CCCC(C)CCNCCNC1C2CC3CC(C2)CC1C3.Cl (stereo unspecified) : 0.80

Form field log10(MIC), entry CC(C)CCCC(C)CCNCCNC1C2CC3CC(C2)CC1C3.Cl (stereo unspecified) : 0.59

Form field log10(MIC), entry CC(C)CCCC(C)CCNCCNC12CC3CC(CC(C3)C1)C2.Cl (stereo unspecified) : 0.89

Form field log10(MIC), entry `CC(C)=CCC/C(C)=C/CNCCNC12CC3CC(CC(C3)C1)C2.Cl` : 1.80

Form field log10(MIC), entry CC(C)=CCC/C(C)=C/CNCCNC1C2CC3CC(C2)CC1C3.Cl (stereo unspecified) : 2.10

====

Reported MIC by item:
Test system: Aspergillus flavus
Protocol text: Antifungal activity against Aspergillus flavus MRC 2527 after 24 hr by broth microdilution method
Format: functional
Test context: MRC 2527, 24 h

As a guide, the following entries are already answered.
CC(C)=CCC/C(C)=C/CNCCNC1C2CC3CC(C2)CC1C3.Cl (stereo not drawn) ... > 100 µg/mL
CC(C)=CCC/C(C)=C/CNCCNC12CC3CC(CC(C3)C1)C2.Cl ... > 100 µg/mL

Form field MIC, entry CC(C)CCCC(C)CCCC(C)CCNCCNC1C2CC3CC(C2)CC1C3.Cl (stereo not drawn) : > 100 µg/mL

Provenance of the data: ChEMBL document CHEMBL3046423
